Ref: patent EP0942911B1

biological target: α-1b adrenoreceptor (Mesocricetus auratus); assay: biochemical; type: binding, hamster; details: [3H]-prazosin radioligand; cloned receptor in LTK cell membranes; read-out: Radioligand Binding (Ki, nM) 1b (Hamster)
Sequence (P18841 whole entry): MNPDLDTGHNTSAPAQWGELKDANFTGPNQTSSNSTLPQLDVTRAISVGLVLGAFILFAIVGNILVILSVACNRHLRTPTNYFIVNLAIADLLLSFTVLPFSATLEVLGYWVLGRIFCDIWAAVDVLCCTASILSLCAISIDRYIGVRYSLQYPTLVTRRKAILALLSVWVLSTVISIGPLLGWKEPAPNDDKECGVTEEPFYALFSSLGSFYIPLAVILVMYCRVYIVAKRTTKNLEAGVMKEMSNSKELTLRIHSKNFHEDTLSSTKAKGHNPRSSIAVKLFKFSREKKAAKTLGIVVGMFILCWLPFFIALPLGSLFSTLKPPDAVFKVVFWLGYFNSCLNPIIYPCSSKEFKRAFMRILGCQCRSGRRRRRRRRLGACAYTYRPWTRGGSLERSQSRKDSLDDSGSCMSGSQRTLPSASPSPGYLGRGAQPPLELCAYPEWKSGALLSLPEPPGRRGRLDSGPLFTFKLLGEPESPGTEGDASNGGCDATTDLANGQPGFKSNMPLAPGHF
Counter-ions that a name gives are not always drawn.
Would you mind telling me the reported Ki of each entry?
Just the number in nM, nothing appended.

Problem: State Ki on α-1b adrenoreceptor (Mesocricetus auratus). Entry: COc1cccc2c1[C@@H]1CCN(CCCCn3c(=O)[nH]c4c(sc5ncc(Cl)nc54)c3=O)C[C@H]1CO2 [Example 97, dihydrochloride]
Solution: 4.7

Problem: State Ki on α-1b adrenoreceptor (Mesocricetus auratus). Entry: COc1cccc2c1[C@@H]1CN(CCCCn3c(=O)[nH]c4c(sc5ccc(-c6cccnc6)nc54)c3=O)C[C@H]1CO2 [Example 58, trihydrochloride]
Solution: 2.08

Problem: State Ki on α-1b adrenoreceptor (Mesocricetus auratus). Entry: COc1cccc2c1[C@@H]1CN(CCCCn3c(=O)[nH]c4c(sc5c(Cl)nccc54)c3=O)C[C@@H]1CO2
Solution: 9.42
